system: L1210 leukemia ip in BDF1 mice, survival T/C; assay: NCI In Vivo Anticancer Drug Screen. Data for tumor model L1210 Leukemia (intraperitoneal) in B6D2F1 (BDF1) mice; conditions: endpoint: mean survival time; dose: 100.0 mg/kg/injection; schedule: Q01DX001 (ip); vehicle: other; higher = longer survival
Inconclusive results and toxic doses are left out.
propertyName: T/C

{"molecule": "Nc1nc2c(nnn2C2CC(CO)C(O)C2O)c(=O)[nH]1 (stereo unspecified)", "propertyName": "T/C", "recordedResult": "104 % of control"}
{"molecule": "CCC#CC(O)(C(=O)OCC)C1CCCCC1 (stereo unspecified)", "propertyName": "T/C", "recordedResult": "104 % of control"}
{"molecule": "CCOC(=O)/C=N/Nc1ccc([N+](=O)[O-])cc1[N+](=O)[O-]", "propertyName": "T/C", "recordedResult": "90 % of control"}
{"molecule": "CC(C)(C)OC(=O)N1C2C=CC(C2)N1C(=O)OC(C)(C)C", "propertyName": "T/C", "recordedResult": "101 % of control"}
{"molecule": "CCOC(=O)CNC(=O)CO", "propertyName": "T/C", "recordedResult": "101 % of control"}
{"molecule": "CN(C)c1ccc(C=Nc2ccccc2)cc1", "propertyName": "T/C", "recordedResult": "98 % of control"}

---

Reported T/C values follow for various compounds
test system: L1210 leukemia ip in BDF1 mice, survival T/C; experiment: NCI In Vivo Anticancer Drug Screen. Data for tumor model L1210 Leukemia (intraperitoneal) in B6D2F1 (BDF1) mice; conditions: endpoint: mean survival time; dose: 100.0 mg/kg/injection; schedule: Q04DX003 (ip); vehicle: Klucel (hydroxypropylcellulose) (HPC); higher = longer survival
Inconclusive results and toxic doses are left out.
propertyName: T/C

{"compound": "C#CCOC(=O)c1ccc(C(=O)OCC#C)cc1", "recordedResult": "100 % of control"}
{"compound": "O=[N+]([O-])c1ccc(CC(O)c2ccccc2Cl)cc1 (stereo unspecified)", "recordedResult": "101 % of control"}
{"compound": "CCC(C#N)(CCN(CC=C(C)C)CC=C(C)C)c1cccc2ccccc12 (stereo unspecified)", "recordedResult": "96 % of control"}
{"compound": "C(=NCCc1ccccc1)c1ccccc1B1OB(c2ccccc2C=NCCc2ccccc2)OB(c2ccccc2C=NCCc2ccccc2)O1", "recordedResult": "91 % of control"}
{"compound": "N#CN(Cc1ccccc1)Cc1ccccc1", "recordedResult": "101 % of control"}
{"compound": "O=Nc1ccc(O)c2ncccc12", "recordedResult": "92 % of control"}

---

Reported T/C values follow for various compounds
tested on: L1210 leukemia ip in BDF1 mice, survival T/C; experiment: NCI In Vivo Anticancer Drug Screen. Data for tumor model L1210 Leukemia (intraperitoneal) in B6D2F1 (BDF1) mice; details: endpoint: mean survival time; dose: 15.0 mg/kg/injection; schedule: Q01DX Z (ip); vehicle: saline; higher = longer survival
Toxic doses and inconclusive results are not listed.
propertyName: T/C

{"compound": "CC(C)=CCC(/C=N/N=C(N)N)C(C)C (centres undefined)", "assaySystem": "L1210 leukemia ip in BDF1 mice, survival T/C", "propertyName": "T/C", "recordedResult": "91 % of control"}
{"compound": "O=C(/C=C\\C(=O)Nc1ccc(C2=NCCN2)cc1)Nc1ccc(C2=NCCN2)cc1", "assaySystem": "L1210 leukemia ip in BDF1 mice, survival T/C", "propertyName": "T/C", "recordedResult": "124 % of control"}
{"compound": "O=C1C=C(C2OC(CO)C(O)C2O)C(=O)N1 (centres undefined)", "assaySystem": "L1210 leukemia ip in BDF1 mice, survival T/C", "propertyName": "T/C", "recordedResult": "110 % of control"}
{"compound": "O=C(Nc1ccc(NC(=O)Nc2cccc(C3=NCCN3)c2)cc1)Nc1cccc(C2=NCCN2)c1", "assaySystem": "L1210 leukemia ip in BDF1 mice, survival T/C", "propertyName": "T/C", "recordedResult": "111 % of control"}
